target: NEK6 (Homo sapiens, UniProt Q9HC98); test: Kinase profiling NEK6; assay type: biochemical; settings: 100 micromolar inhibitor concentration; 100 is no change; read-out: residual kinase activity, NEK6
Sequence (Q9HC98 whole entry, species assumed): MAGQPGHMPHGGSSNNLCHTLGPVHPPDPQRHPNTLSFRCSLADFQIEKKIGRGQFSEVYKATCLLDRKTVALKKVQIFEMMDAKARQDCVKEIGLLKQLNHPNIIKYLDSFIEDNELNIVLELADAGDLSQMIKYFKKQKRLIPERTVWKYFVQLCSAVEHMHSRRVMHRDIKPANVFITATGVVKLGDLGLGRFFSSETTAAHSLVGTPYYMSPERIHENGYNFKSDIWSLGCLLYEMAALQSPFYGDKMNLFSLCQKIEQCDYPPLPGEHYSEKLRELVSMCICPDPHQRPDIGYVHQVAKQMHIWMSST
measurement_type: remaining activity at 100 µM (%)
Number only, in %; omit the unit.

Entry CC(=O)Nc1nc2cc(C(F)(F)F)ccc2s1 [Compound 03-73] under NEK6 (Homo sapiens, UniProt Q9HC98) had remaining activity at 100 µM of 119

Entry CC(=O)Nc1nc2ccc(C(F)(F)F)cc2s1 [Compound 01-90] under NEK6 (Homo sapiens, UniProt Q9HC98) had remaining activity at 100 µM of 107

Entry CC(=O)Nc1nc2ccc([N+](=O)[O-])cc2s1 [Compound 13-10] under NEK6 (Homo sapiens, UniProt Q9HC98) had remaining activity at 100 µM of 92

Entry COc1ccc2sc(NC(C)=O)nc2c1 [Compound 03-21] under NEK6 (Homo sapiens, UniProt Q9HC98) had remaining activity at 100 µM of 108

Entry CC(=O)Nc1nc2ccc(O)cc2s1 [Compound 01-71] under NEK6 (Homo sapiens, UniProt Q9HC98) had remaining activity at 100 µM of 75

Entry CC(=O)Nc1nc2cc(F)ccc2s1 [Compound 03-77] under NEK6 (Homo sapiens, UniProt Q9HC98) had remaining activity at 100 µM of 96

Entry CC(=O)Nc1nc2ccc(C#N)cc2s1 [Compound 01-94] under NEK6 (Homo sapiens, UniProt Q9HC98) had remaining activity at 100 µM of 86

====

biological target: LKB1 (Homo sapiens); assay: Kinase profiling LKB1; assay type: biochemical; details: 100 micromolar inhibitor concentration; 100 is no change
Sequence (Q15831 whole entry, species assumed): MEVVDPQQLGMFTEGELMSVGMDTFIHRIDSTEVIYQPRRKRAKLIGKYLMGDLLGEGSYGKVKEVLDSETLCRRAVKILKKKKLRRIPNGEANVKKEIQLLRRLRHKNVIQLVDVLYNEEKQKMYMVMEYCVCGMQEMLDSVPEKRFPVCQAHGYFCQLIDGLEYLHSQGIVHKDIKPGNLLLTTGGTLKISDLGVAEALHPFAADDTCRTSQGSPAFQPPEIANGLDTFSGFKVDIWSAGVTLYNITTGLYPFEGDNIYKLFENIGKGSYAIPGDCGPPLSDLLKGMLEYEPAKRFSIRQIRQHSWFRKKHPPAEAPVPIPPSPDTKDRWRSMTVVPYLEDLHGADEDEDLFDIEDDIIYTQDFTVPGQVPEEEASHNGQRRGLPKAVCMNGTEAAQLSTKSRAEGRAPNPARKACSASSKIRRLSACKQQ
Sequence (Q7RTN6 whole entry partner, species assumed): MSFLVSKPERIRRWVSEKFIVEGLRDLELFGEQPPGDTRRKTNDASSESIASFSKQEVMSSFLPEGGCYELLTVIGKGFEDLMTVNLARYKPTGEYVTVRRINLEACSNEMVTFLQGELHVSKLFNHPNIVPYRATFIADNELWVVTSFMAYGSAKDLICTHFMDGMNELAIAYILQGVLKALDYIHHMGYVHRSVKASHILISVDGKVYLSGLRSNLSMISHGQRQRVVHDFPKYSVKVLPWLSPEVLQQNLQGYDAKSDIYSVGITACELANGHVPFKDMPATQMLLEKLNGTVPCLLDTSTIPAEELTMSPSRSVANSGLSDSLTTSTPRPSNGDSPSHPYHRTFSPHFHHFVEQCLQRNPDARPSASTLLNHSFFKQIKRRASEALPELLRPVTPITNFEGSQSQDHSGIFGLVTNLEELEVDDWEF
Sequence (Q9Y376 whole entry partner, species assumed): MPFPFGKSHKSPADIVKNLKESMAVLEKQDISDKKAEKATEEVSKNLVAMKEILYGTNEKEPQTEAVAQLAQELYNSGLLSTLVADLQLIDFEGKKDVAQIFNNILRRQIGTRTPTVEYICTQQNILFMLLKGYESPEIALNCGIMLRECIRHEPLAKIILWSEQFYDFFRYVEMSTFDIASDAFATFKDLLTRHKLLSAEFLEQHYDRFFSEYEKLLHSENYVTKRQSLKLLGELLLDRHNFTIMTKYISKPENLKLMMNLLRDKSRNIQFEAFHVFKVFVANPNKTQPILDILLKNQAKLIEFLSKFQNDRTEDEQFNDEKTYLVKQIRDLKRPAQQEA
measurement_type: residual kinase activity, LKB1

Just so you know, measured residual kinase activity, LKB1 for O=C(Nc1nc2ccc(F)cc2s1)c1ccccc1 came out at 100

Just so you know, measured residual kinase activity, LKB1 for O=C(Nc1nc2cc(O)ccc2s1)c1cccnc1 came out at 83

Just so you know, measured residual kinase activity, LKB1 for COc1ccc2sc(NC(=O)c3cccc(C(N)=O)c3)nc2c1 came out at 95

Just so you know, measured residual kinase activity, LKB1 for COC(=O)c1cccc(C(=O)Nc2nc3cc(OC)ccc3s2)c1 came out at 90

Just so you know, measured residual kinase activity, LKB1 for O=C(Nc1nc2ccc(O)cc2s1)c1cccnc1 came out at 45

Just so you know, measured residual kinase activity, LKB1 for O=C(Nc1nc2ccc(C(F)(F)F)cc2s1)c1ccccc1 came out at 103

Just so you know, measured residual kinase activity, LKB1 for O=C(Nc1nc2cc(O)ccc2s1)c1ccccc1 came out at 33

Just so you know, measured residual kinase activity, LKB1 for O=C(Nc1nc2ccc(O)cc2s1)c1ccccn1 came out at 64

Just so you know, measured residual kinase activity, LKB1 for COc1ccc2sc(NC(=O)c3ccccc3)nc2c1 came out at 72

====

Molecular target: MAP4K5 (Homo sapiens)
Sequence (Q9Y4K4 whole entry, species assumed): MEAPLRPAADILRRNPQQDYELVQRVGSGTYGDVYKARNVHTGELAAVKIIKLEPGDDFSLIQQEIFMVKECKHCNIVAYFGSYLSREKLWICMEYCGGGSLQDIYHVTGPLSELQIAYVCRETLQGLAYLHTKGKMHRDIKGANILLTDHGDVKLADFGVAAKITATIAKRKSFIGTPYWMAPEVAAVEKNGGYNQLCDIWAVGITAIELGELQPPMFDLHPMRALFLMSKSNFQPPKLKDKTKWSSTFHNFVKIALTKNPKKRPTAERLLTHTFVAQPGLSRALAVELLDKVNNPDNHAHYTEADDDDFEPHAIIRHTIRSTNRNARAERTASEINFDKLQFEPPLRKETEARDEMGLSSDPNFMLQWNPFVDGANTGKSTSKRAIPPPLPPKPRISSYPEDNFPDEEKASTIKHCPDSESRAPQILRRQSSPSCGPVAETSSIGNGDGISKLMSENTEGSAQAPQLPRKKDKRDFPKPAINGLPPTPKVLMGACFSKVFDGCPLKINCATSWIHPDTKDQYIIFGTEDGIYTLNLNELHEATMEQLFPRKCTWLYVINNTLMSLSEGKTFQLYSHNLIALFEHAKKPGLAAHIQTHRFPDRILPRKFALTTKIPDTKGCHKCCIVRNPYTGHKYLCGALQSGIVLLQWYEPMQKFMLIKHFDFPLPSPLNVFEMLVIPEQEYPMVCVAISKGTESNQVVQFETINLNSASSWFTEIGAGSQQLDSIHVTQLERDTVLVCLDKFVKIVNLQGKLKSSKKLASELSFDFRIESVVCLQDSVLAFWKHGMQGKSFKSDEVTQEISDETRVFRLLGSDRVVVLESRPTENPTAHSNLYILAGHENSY
Assay: Kinase profiling MAP4K5
Type: biochemical
Conditions: 100 micromolar inhibitor concentration; 100 is no change; read-out: residual kinase activity, MAP4K5
From the text: Any value less that 25 is considered to be highly significant inhibition.
measurement_type: remaining activity at 100 µM

Just so you know, measured remaining activity at 100 µM for CC(=O)Nc1nc2cc(F)ccc2s1 [Compound 03-77] came out at 65%

Just so you know, measured remaining activity at 100 µM for CC(=O)Nc1nc2ccc(C#N)cc2s1 [Compound 01-94] came out at 38%

Just so you know, measured remaining activity at 100 µM for CC(=O)Nc1nc2ccc(C(F)(F)F)cc2s1 [Compound 01-90] came out at 40%

Just so you know, measured remaining activity at 100 µM for CC(=O)Nc1nc2cc(C(F)(F)F)ccc2s1 [Compound 03-73] came out at 73%

Just so you know, measured remaining activity at 100 µM for COc1ccc2sc(NC(C)=O)nc2c1 [Compound 03-21] came out at 96%
